Each recorded value in this set is attributed to patent USRE47150.

Target: T1, mouse tissue factor pathway inhibitor (TFPI) (mouse, UniProt O54819 29-289, limits assumed)
T1 construct: bought; also called mTFPI; murine TFPI
T1 sequence (looked up): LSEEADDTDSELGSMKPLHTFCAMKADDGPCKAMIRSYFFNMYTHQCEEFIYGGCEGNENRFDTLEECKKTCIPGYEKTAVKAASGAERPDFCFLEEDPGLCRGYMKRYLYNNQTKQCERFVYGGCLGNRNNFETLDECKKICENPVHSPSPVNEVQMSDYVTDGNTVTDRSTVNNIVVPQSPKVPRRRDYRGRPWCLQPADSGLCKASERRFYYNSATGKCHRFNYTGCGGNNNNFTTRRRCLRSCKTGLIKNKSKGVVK
Experiment: competitive ELISA
parameter: variant/HC_K99L (ratio)

• 2A8 HC G33A+S35D+S55R+K99L/LC Y48F+N51V+D91W (Fab, V domains shown) VH: QVQLVESGGGLVQPGGSLRLSCAASGFTFRSYAMDWVRQAPGKGLEWVSSIRGSRSSTYYADSVKGRFTISRDNSKNTLYLQMNSLRAEDTAVYYCARLYRYWFDYWGQGTLVTVSS VL: DIELTQPPSVSVAPGQTARISCSGDNLRNYYAHWYQQKPGQAPVVVIFYDVNRPSGIPERFSGSNSGNTATLTISGTQAEDEADYYCQSWWDGVPVFGGGTKLTVLG = 14.7
• 2A8 HC S35L+S54F+K99V/LC Y48F+D91K (Fab, V domains shown) VH: QVQLVESGGGLVQPGGSLRLSCAASGFTFRSYGMLWVRQAPGKGLEWVSSIRGFSSSTYYADSVKGRFTISRDNSKNTLYLQMNSLRAEDTAVYYCARVYRYWFDYWGQGTLVTVSS VL: DIELTQPPSVSVAPGQTARISCSGDNLRNYYAHWYQQKPGQAPVVVIFYDNNRPSGIPERFSGSNSGNTATLTISGTQAEDEADYYCQSWKDGVPVFGGGTKLTVLG = 3.1
• 2A8-g216 (HC S31V+I51D+S55R+K99V/LC D1S+I2Y+A13S+S21T+R28P+N29K+Y48F+N51S+E80M+D91L+D92S+V94T+V96W) (Fab, V domains shown) VH: QVQLVESGGGLVQPGGSLRLSCAASGFTFRVYGMSWVRQAPGKGLEWVSSDRGSRSSTYYADSVKGRFTISRDNSKNTLYLQMNSLRAEDTAVYYCARVYRYWFDYWGQGTLVTVSS VL: SYELTQPPSVSVSPGQTARITCSGDNLPKYYAHWYQQKPGQAPVVVIFYDSNRPSGIPERFSGSNSGNTATLTISGTQAMDEADYYCQSWLSGTPWFGGGTKLTVLG = 21.4
